System: DIV17
Assay: qHTS profiling for inhibitors of Plasmodium falciparum proliferation (AID 504749);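 also: 0% = DMSO vehicle and full inhibition = artemisinin control; nearly all actives have a fitted effect of over 60% in size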
Conditions: P. falciparum in erythrocytes, SYBR Green DNA, 72 h; series mostly up to 12.8 µM
Protocol: NIH National Institute of Allergy and Infectious Diseases [NIAID] NIH Chemical Genomics Center [NCGC] […] Because mature erythrocytes lack DNA, only Plasmodium-derived DNA is detected. NCGC Assay Protocol Summary: The SYBR Green viability assay was adapted from a method described previously (Plouffe et al., 2008). […] The following morning, fluorescence intensity at 485(14) nm excitation and 535(25) nm emission wavelengths was measured on an EnVision (Perkin Elmer) plate reader. […]
Results filed as inconclusive are left out. Calls of active or inactive are those of the source. Calls follow the shape of the dose curve; as a rule, active = well fitted inhibition curve with a large enough effect; inconclusive = small, poorly fitted or top-dose-only effect; inactive = flat fitted curve, though single readings scatter.

- chemicalStructure: "C[C@H](NCCc1ccc(O)cc1)[C@@H](O)c1ccc(O)cc1"
  outcome: "inactive"
- chemicalStructure: "O=C(c1ccccc1)c1ccc2n1CC[C@H]2C(=O)O"
  outcome: "inactive"
- chemicalStructure: "COCCc1ccc(OC[C@H](O)CNC(C)C)cc1"
  outcome: "inactive"

* * *

Assay: qHTS Assay for Lipid Storage Modulators (AID 1519)
Details: Drosophila S3 cells, BODIPY lipid droplet/cell ratio, laser cytometry; measured here: lipid channel max response; cells loaded with oleic acid
Method: NIH Molecular Libraries Probe Production Centers Network [MLPCN] NIH Chemical Genomics Center [NCGC] Assay Submitter (PI): Beller, Mathias; Max-Planck-Institut fur Biophysikalische Chemie […] We dispensed 4 uL of cells at 1.25 x 10^6 cells/mL into LoBase Aurora COC 1,536-well plates (black walled, clear bottom) with a bottle-valve solenoid-based dispenser (Aurora) to obtain 5,000 cells/well. […] The ratio of the total intensity in PMT channel 1 over total intensity of channel 3 was also calculated. […]
Records with an inconclusive call do not appear.
Where max response equals or exceeds 10%, the correct label is yes (1); where it does not, the label is no (0).

Consider the worked cases shown below.
- chemicalStructure: "COCCn1c(=O)c(-c2cccs2)nc2cnc(N3CCN(C)CC3)nc21"
  class: "yes (1)"
- chemicalStructure: "COc1ccc(-c2nc3cnc(N4CCNCC4)nc3n(CCC#N)c2=O)cc1"
  class: "yes (1)"
- chemicalStructure: "COc1ccc(NC(=O)N2CC[C@@]3(CCCN(C(C)=O)C3)C2)cc1"
  class: "yes (1)"

Problem: State whether the measured max response reaches 10%, counting equality as reaching it, for `c1ccc(C(c2ccccc2)N2CC3(CCNCC3)C2)cc1`
Result: no (0)

Problem: State whether the measured max response reaches 10%, counting equality as reaching it, for `COCC(=O)N1CCC2(CCN(Cc3ccccc3OC)CC2)CC1`
Result: no (0)

Problem: State whether the measured max response reaches 10%, counting equality as reaching it, for `COc1ccccc1CNc1nc(-c2ccccc2CN(C)C)nc2ccccc12`
Result: no (0)

* * *

test system: HB3; experiment: qHTS profiling for inhibitors of Plasmodium falciparum proliferation (AID 504749);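 also: 0% = DMSO vehicle and full inhibition = artemisinin control; nearly all actives have a fitted effect of over 60% in size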; details: P. falciparum in erythrocytes, SYBR Green DNA, 72 h; series mostly up to 12.8 µM
Inconclusive results are not listed. Calls of active or inactive are those of the source. Calls follow the shape of the dose curve; as a rule, active = well fitted inhibition curve with a large enough effect; inconclusive = small, poorly fitted or top-dose-only effect; inactive = flat fitted curve, though single readings scatter.
Can you answer with just one of these options? active, inactive

Consider the worked cases shown below.
- molecule: "Cn1c(=O)c2c(ncn2C[C@@H](O)CO)n(C)c1=O"
  class: "inactive"
- molecule: "CCn1cc(C(=O)O)c(=O)c2cc(F)c(N3CCN[C@@H](C)C3)c(F)c21"
  class: "inactive"
- molecule: "CN(C)[C@H]1C(=O)C(C(=O)NCN2CCCC2)=C(O)[C@]2(O)C(=O)C3=C(O)c4c(O)cccc4[C@@](C)(O)[C@H]3C[C@@H]12"
  class: "inactive"
- molecule: "CN1[C@@H]2CC[C@H]1CC(OC(=O)[C@@H](O)c1ccccc1)C2 (stereo not given in full)"
  class: "inactive"
- molecule: "CN1CCCC[C@@H]1CCN1c2ccccc2Sc2ccc(S(C)=O)cc21 (stereo not given in full)"
  class: "inactive"

Problem: So what was the verdict on `NS(=O)(=O)c1cc([C@@]2(O)NC(=O)c3ccccc32)ccc1Cl` in this test?
Result: inactive

Problem: So what was the verdict on `C[C@@H]1COc2c(N3CCN(C)CC3)c(F)cc3c(=O)c(C(=O)O)cn1c23` in this test?
Result: inactive

Problem: So what was the verdict on `CO[C@]1(NC(=O)CSCC#N)C(=O)N2C(C(=O)O)=C(CSc3nnnn3C)CS[C@H]21` in this test?
Result: inactive
